target: KCNQ4 (Homo sapiens); experiment: TEVC of homomeric KCNQ4 expressed in Xenopus oocytes; format: cell-based; settings: Example 4; read-out: EC50, ΔV0.5act of KCNQ4
Parameter Measured: EC50 (nM)
Give a bare numeral; the unit nM is implied.

Record request: EC50 value, item NC(C(=O)O)c1ccc(F)cc1 (stereo not shown) [4FPG, 4-(fluorophenyl)glycine]
49

---

biological target: KCNQ1 (Homo sapiens, UniProt P51787); test: TEVC of homomeric KCNQ1 expressed in Xenopus oocytes; format: cell-based; details: Example 4; read-out: EC50, ΔV0.5act of KCNQ1
Parameter Measured: pEC50
Formally, pEC50 is defined as -log10 of the concentration c, with c in mol/L.

Record request: pEC50 value, item NC(C(=O)O)c1ccc(F)cc1 (stereo not shown)
7.05

---

Target: KCNQ2-W236L/KCNQ3 (Homo sapiens, UniProt O43525+O43526, W236L)
Assay: TEVC of KCNQ2-W236L/KCNQ3 channels
Conditions: ΔV0.5activation; read-out: EC50 of (E)-2-dodecenal
Text: As previously described (12), we generated cRNA transcripts encoding human KCNA1, KCNE1, KCNE2, KCNE3, KCNQ1, KCNQ2, KCNQ3, KCNQ4 or KCNQ5 by in vitro transcription using the T7 polymerase mMessage mMachine kit (Thermo Fisher Scientific), after vector linearization, from cDNA sub-cloned into plasmids incorporating Xenopus laevis β-globin 5′ and 3′ UTRs flanking the coding region to enhance translation and cRNA stability. We quantified cRNA by spectrophotometry. […]
Parameter Measured: EC50 (µM)
Give a bare numeral; the unit µM is implied.

Record request: EC50 value, item CCCCCCCCC/C=C/C=O [(E)-2-dodecenal]
5.07

---

target: KCNQ3* (KCNQ3-A315T) (Homo sapiens, UniProt O43525, A315T); assay: TEVC of homomeric KCNQ3* expressed in Xenopus oocytes; assay type: cell-based
Parameter Measured: effect on KCNQ3* (in words)

NCC(=O)O [glycine, reference compound] :: no effects
NC(C(=O)O)c1ccc(F)cc1 (stereo not shown) :: no effects

---

Target: KCNQ3* (KCNQ3-A315T) (Homo sapiens, UniProt O43525, A315T)
Experiment: TEVC of homomeric KCNQ3* expressed in Xenopus oocytes
Type: cell-based
Details: Example 4; read-out: EC50, ΔV0.5act of KCNQ3*
Text: cRNA transcripts encoding human KCNA1, KCNQ1, KCNQ2, KCNQ3, KCNQ4, or KCNQ5 were generated by in vitro transcription using the T7 polymerase message machine kit (Thermo Fisher Scientific), after vector linearization, from cDNA sub-cloned into plasmids incorporating X. laevis β-globin 5′ and 3′ UTRs flanking the coding region to enhance translation and cRNA stability. cRNA was quantified by spectrophotometry. […]
Parameter Measured: pEC50
Formally, pEC50 is defined as -log10 of the concentration c, with c in mol/L.

Record request: pEC50 value, item CS(=O)(=O)N(CC(=O)O)c1cccc(F)c1
7.74

---

biological target: KCNQ4 (Homo sapiens, UniProt P56696); assay: TEVC of homomeric KCNQ4 expressed in Xenopus oocytes; format: cell-based; conditions: −60 mV; read-out: EC50 of KCNQ4 activation
Parameter Measured: EC50 (µM)
Give a bare numeral; the unit µM is implied.

So what EC50 did CC(=O)c1c(O)c(C)c(O)c(Cc2c(O)c3c(c(C(=O)/C=C/c4ccccc4)c2O)OC(C)(C)C=C3)c1O [MTX, mallotoxin] get with KCNQ4 (Homo sapiens, UniProt P56696)?
20.2

---

target: KCNQ2/3 (Homo sapiens, UniProt O43525+O43526); experiment: TEVC of heteromeric KCNQ2/3 channels expressed in Xenopus laevis oocytes; type: cell-based; details: current at −60 mV; read-out: EC50 for KCNQ2/3 activation
Parameter Measured: pEC50
Formally, pEC50 is defined as -log10 of the concentration c, with c in mol/L.

Record request: pEC50 value, item NCC1(CC(=O)O)CCCCC1 [gabapentin, reference compound]
8.38
